Test system: TAMH cells over expressing a variant of Bcl-xL (A142L)
Experiment: Cytotoxicity / apoptosis induction in TAMH cells over expressing Bcl-xL variant A142L
Format: cell-based
Conditions: Table 4; TAMH A142L cells
readout name: EC50

Illustrative cases are given below, each with its answer.
# structure notation, study target, readout name, assay result
data = [
    ("COc1cc(Br)c(O)c(/C=N/NC(=O)c2ccccc2)c1", "TAMH cells over expressing a variant of Bcl-xL (A142L)", "EC50", "> 25 µM"),
    ("COc1cc(O)c(/C=N/Nc2ccccn2)cc1Br", "TAMH cells over expressing a variant of Bcl-xL (A142L)", "EC50", "> 25 µM"),
]

Now look at this entry.
Query (compound): `CC(C)(C)c1cc(Br)c(O)c(/C=N/Nc2ccccn2)c1` ; field requested: EC50 > 25 µM
